So I've got a bunch of variants here, and I need their abundance fitness values.
B1: Pituitary-specific positive transcription factor 1, residues 130 to 198; numbered along this chain, P28069 (parent)
chain: RELEKFANEFKVRRIKLGYTQTNVGEALAAVHGSEFSQTTICRFENLQLSFKNACKLKAILSKWLEEAE

Variants of: B1
Assay: abundance fitness (aPCA) (normalised: wild type 0, dead -1); higher = more abundant; growth selection in yeast, the domain comes from the species named
Settings: Homo sapiens
Give bare numbers.

[[record]]
variant_name = "R14N"
metric_name = "abundance fitness"
measured_value = -0.897


# per-item lookup of abundance fitness; items listed below
1. S37T
2. F51T
3. G33K

Return:
1. -0.063
2. -0.07
3. -0.85

# per-item lookup of abundance fitness; items listed below
1. L57M
2. G25M
3. K52C
4. G18N
5. A59W
6. A27V
7. C55H

Return:
1: 0.285; 2: -0.468; 3: -0.753; 4: -0.969; 5: -0.61; 6: -0.662; 7: -0.099

# per-item lookup of abundance fitness; items listed below
1. N23F
2. A27T
3. C42D
4. E26H
5. E69D

Return:
1. 0.145
2. -0.18
3. 0.325
4. -0.486
5. -0.28

# per-item lookup of abundance fitness; items listed below
1. A68E
2. N46T
3. E4D
4. V24G
5. E26C
6. Y19C
7. V12S

Return:
1. -0.003
2. -0.579
3. -0.612
4. -0.753
5. -0.476
6. -0.562
7. 0.089
